Below, each entry is listed with its recorded Emax.
Molecular target: glutathione-S-transferase (GST) tagged LXRalpha LBD (ligand binding domain) (Homo sapiens)
Construct: purchased Invitrogen pv4655
Experiment: LanthaScreen TR-FRET Liver X Receptor Coactivator Assay, co-activator recruitment to LXRalpha LBD
Assay type: biochemical
Details: efficacy at max dose, in relation to reference dual agonist T0901317; read-out: LXR alpha Activity @ max dose (%)
Text: […]
Write it as a number; the unit % goes unstated.

CN(C)C(=O)c1ccc(N2CCN(CC3CCN(C(=O)[C@](O)(c4ccccc4)C(F)(F)F)CC3)CC2)cc1Cl | 29
CN(C)C(=O)c1ccc(N2CCC(CC3(C)CCN(C(=O)[C@](O)(c4ccccc4)C(F)(F)F)CC3)CC2)cc1Cl | 20
CNC(=O)c1ccc(N2CCC(CC3CCN(C(=O)[C@](O)(c4cccc(C(F)(F)F)c4)C(F)(F)F)CC3)CC2)nc1Cl | 42
CNC(=O)c1ccc(N2CCC(CC3CCN(C(=O)[C@](O)(c4cccc(OC(C)C)c4)C(F)(F)F)CC3)CC2)nc1Cl | 6
CCOc1cccc([C@@](O)(C(=O)N2CCC(CC3(C)CCN(c4ccc(C(=O)N(C)C)c(OC)n4)CC3)CC2)C(F)(F)F)c1 | 7

Continue with the molecule presented below.
Emax reading for "COc1cccc([C@@](O)(C(=O)N2CCC(CC3CCN(c4ccc(C(=O)N(C)C)c(Cl)c4)CC3)CC2)C(F)(F)C(F)(F)F)c1" : 23

----------
Molecular target: glutathione-S-transferase (GST) tagged LXRbeta LBD (ligand binding domain) (Homo sapiens, UniProt P55055)
Construct: purchased Invitrogen pv4658.pps
Sequence (P55055 222-460 limits assumed): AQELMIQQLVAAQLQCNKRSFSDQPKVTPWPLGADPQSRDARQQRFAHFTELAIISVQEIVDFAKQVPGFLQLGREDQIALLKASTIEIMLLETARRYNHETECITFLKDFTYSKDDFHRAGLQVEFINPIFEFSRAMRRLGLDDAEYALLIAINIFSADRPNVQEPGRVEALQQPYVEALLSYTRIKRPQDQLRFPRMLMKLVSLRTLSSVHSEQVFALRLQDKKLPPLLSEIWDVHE
Assay: LanthaScreen TR-FRET Liver X Receptor Coactivator Assay, co-activator recruitment to LXRbeta LBD
Type: biochemical
Details: potency (Inflection Point, IP), co-activator recruitment to LXRbeta LBD, in relation to T0901317; read-out: LXR beta IP
METRIC_NAME: EC50 (nM)
Write it as a number; the unit nM goes unstated.

EC50 reading for Cc1ccsc1C(O)(C(=O)N1CCC(CC2CCN(c3ccc(C(=O)N(C)C)c(Cl)c3)CC2)CC1)C(F)(F)F (stereo not drawn) : 49

EC50 reading for "O=C(c1ccc(N2CCC(CC3CCN(C(=O)[C@](O)(c4ccccc4)C(F)(F)F)CC3)CC2)cc1Cl)N1[C@H]2CC[C@@H]1CC2" : 74

EC50 reading for CN(C)C(=O)c1ccc(N2CCC(OC3CCN(C(=O)C(O)(c4ccc(Cl)cc4)C(F)(F)F)CC3)CC2)cc1Cl (stereo not drawn) : 513

----------
Molecular target: glutathione-S-transferase (GST) tagged LXRalpha LBD (ligand binding domain) (Homo sapiens, UniProt Q13133)
Construct: purchased Invitrogen pv4655
Sequence (Q13133 209-447 limits assumed): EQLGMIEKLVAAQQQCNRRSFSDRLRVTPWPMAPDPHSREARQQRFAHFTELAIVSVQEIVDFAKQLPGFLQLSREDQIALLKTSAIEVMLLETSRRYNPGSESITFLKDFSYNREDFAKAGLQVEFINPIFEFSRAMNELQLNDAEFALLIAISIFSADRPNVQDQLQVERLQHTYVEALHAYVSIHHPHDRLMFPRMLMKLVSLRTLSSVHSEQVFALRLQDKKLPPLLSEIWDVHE
Experiment: LanthaScreen TR-FRET Liver X Receptor Coactivator Assay, co-activator recruitment to LXRalpha LBD
Assay type: biochemical
Details: efficacy at max dose, in relation to reference dual agonist T0901317; read-out: LXR alpha Activity @ max dose (%)
Excerpt: […]
METRIC_NAME: Emax

Cc1cccc([C@@](O)(C(=O)N2CCC(CC3CCN(c4ccc(C(=O)N(C)C)cc4)CC3)CC2)C(F)(F)F)c1 | 5%
CNC(=O)c1ccc(N2CCC(OC3CCN(C(=O)C(O)(c4cccc(C(F)(F)F)c4)C(F)(F)F)CC3)CC2)cc1Cl (stereo not drawn) | 28%
COc1cccc(C(O)(C(=O)N2CCC(CC3CCN(c4ccc(C(=O)N(C)C)c(Cl)c4)CC3)CC2)C(F)(F)F)c1F (stereo not drawn) | 10%
CN(C)C(=O)c1ccc(N2CCC(CC3CCN(C(=O)[C@](O)(c4cc(F)cc(Cl)c4)C(F)(F)F)CC3)CC2)cc1Cl | 36%
CN(C)C(=O)c1ccc(N2CCC(CC3(C)CCN(C(=O)[C@](O)(c4cc(Cl)cc(Cl)c4)C(F)(F)F)CC3)CC2)cc1Cl | 0%

Continue with the compound presented below.
Emax reading for "CN(C)C(=O)c1ccc(N2CCC(CC3(C)CCN(C(=O)[C@](O)(c4cccc(Cl)c4)C(F)(F)F)CC3)CC2)nc1Cl" : 22%

----------
Target: glutathione-S-transferase (GST) tagged LXRbeta LBD (ligand binding domain) (Homo sapiens, UniProt P55055)
Construct: purchased Invitrogen pv4658.pps
Assay: LanthaScreen TR-FRET Liver X Receptor Coactivator Assay, co-activator recruitment to LXRbeta LBD
Format: biochemical
Settings: efficacy at max dose, in relation to reference dual agonist T0901317; read-out: LXR beta Activity @ max dose (%)
Grouping by measured Emax is done with the following cut points: label 0 (below 60%), label 1 (60% to below 80%), label 2 (80% or more)

# bin lookup: classify COc1cccc([C@@](O)(C(=O)N2CC(CC3CCN(c4ccc(C(=O)N(C)C)c(OC)n4)CC3)C2)C(F)(F)F)c1 [Example 7-21] by its Emax
label 1

# bin lookup: classify CN(C)C(=O)c1ccc(N2CCC(CC3CCN(C(=O)[C@](N)(c4ccccc4)C(F)(F)F)CC3)CC2)cc1Cl (stereo in doubt) [Example 2-101] by its Emax
label 2

# bin lookup: classify CN(C)C(=O)c1ncc(N2CCC(CC3CCN(C(=O)C(O)(c4cccc(C(F)(F)F)c4)C(F)(F)F)CC3)CC2)cc1Cl (stereo not shown) [Example 2-5] by its Emax
label 0

# bin lookup: classify CCc1cccc([C@@](O)(C(=O)N2CCC(CC3CCN(c4ccc(C(N)=O)c(Cl)c4)CC3)CC2)C(F)(F)F)c1 [Example 12-6] by its Emax
label 0

# bin lookup: classify CCOc1cccc([C@@](O)(C(=O)N2CC(CC3CCN(c4ccc(C(=O)N(C)C)c(Cl)n4)CC3)C2)C(F)(F)F)c1 [Example 7-44] by its Emax
label 1

# bin lookup: classify CN(C)C(=O)c1ccc(N2CCC(CC3CN(C(=O)[C@](O)(c4ccccc4)C(F)(F)F)C3)CC2)cc1Cl [Example 2-58] by its Emax
label 2

# bin lookup: classify CN(C)C(=O)c1ccc(N2CCC(CC3CCN(C(=O)C(N)(c4cccc(Cl)c4)C(F)(F)F)CC3)CC2)cc1Cl (stereo not shown) [Example 2-167] by its Emax
label 1

# bin lookup: classify CN(C)C(=O)c1ccc(N2CCC(CC3CCN(C(=O)C(O)(c4ccc(C(F)(F)F)cc4)C(F)(F)F)CC3)CC2)cc1Cl (stereo not shown) [Example 2-16] by its Emax
label 0

# bin lookup: classify CCc1cccc([C@@](O)(C(=O)N2CCC(CC3CCN(c4ccc(C(=O)N(C)C)cc4)CC3)CC2)C(F)(F)F)c1 [Example 2-141] by its Emax
label 0

# bin lookup: classify O=C(c1ccc(N2CCC(CC3CCN(C(=O)[C@](O)(c4ccccc4)C(F)(F)F)CC3)CC2)cc1Cl)N1CCC[C@H]1CO [Example 4-3] by its Emax
label 1

# bin lookup: classify CNC(=O)c1ccc(N2CCC(CC3CCN(C(=O)[C@](O)(c4cccc(C(C)C)c4)C(F)(F)F)CC3)CC2)cc1Cl [Example 7-123] by its Emax
label 1

# bin lookup: classify CN(C)C(=O)c1ccc(N2CCC(OC3CCN(C(=O)[C@](O)(c4ccccc4)C(F)(F)F)CC3)CC2)cc1Cl [Example 2-11] by its Emax
label 2

----------
Molecular target: glutathione-S-transferase (GST) tagged LXRalpha LBD (ligand binding domain) (Homo sapiens, UniProt Q13133)
Construct: purchased Invitrogen pv4655
Experiment: LanthaScreen TR-FRET Liver X Receptor Coactivator Assay, co-activator recruitment to LXRalpha LBD
Assay type: biochemical
Settings: efficacy at max dose, in relation to reference dual agonist T0901317; read-out: LXR alpha Activity @ max dose (%)
Below, each entry is listed with its recorded Emax.
Express the reported value numerically, then name its unit.

CN(C)C(=O)c1ccc(N2CCC(CC3CCN(C(=O)C(O)(c4ccsc4)C(F)(F)F)CC3)CC2)cc1Cl (stereo not shown) [Example 2-30] | 25%
COc1cccc([C@@](O)(C(=O)N2CCC(CC3CCN(c4ccc(C(=O)N(C)C)c(Cl)c4)CC3)CC2)C(C)C)c1 [Example 2-115] | 0%
CN(C)C(=O)c1ccc(N2CCCN(CC3CCN(C(=O)C(O)(c4cccc(Cl)c4)C(F)(F)F)CC3)CC2)cc1Cl (stereo not shown) [Example 6-2] | 14%
CN(C)C(=O)c1ccc(N2CCC(CC3CCN(C(=O)[C@](O)(c4ccccc4)C(F)(F)C(F)(F)F)CC3)CC2)cc1 [Example 2-140] | 43%
CN(C)C(=O)c1ccc(N2CCC(CC3(C)CCN(C(=O)[C@](O)(c4cccc(OC(F)(F)F)c4)C(F)(F)F)CC3)CC2)cc1Cl [Example 2-51] | 11%
CN(C)C(=O)c1ccc(N2CCC(CC3CCN(C(=O)C(C)(C)c4ccccc4)CC3)CC2)nc1Cl [Example 7-61] | 21%

Continue with the compound presented below.
Emax reading for CNC(=O)c1ccc(N2CCC(CC3CCN(C(=O)[C@](O)(c4cccc(OC)c4)C(F)(F)F)CC3)CC2)cc1Cl [Example 7-33] : 12%
